Below, each of the compounds is paired with its reported viability, T/C value.
# Tested on: 945468-187-T-J2-PDC spheroids viability;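 also: spheroids exposed to compounds for seven days before reading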
# ASSAY NOTES: Anticancer human tumor 945468-187-T-J2-PDC patient-derived rectal carcinoma cell line growth inhibition [PI3K]
# APPLIED CONDITIONS: second compound 10 µM; first compound 3.16 µM; active compounds read low; spheroids with HUVEC and MSC

{"columns": ["COMPOUND", "UNIT ANNOTATION", "viability, T/C"],
 "data": [
  ["Cn1nccc1Nc1nccc(-c2ccn(C(CO)c3ccc(Cl)c(F)c3)c(=O)c2)n1 (stereo not drawn) + Cc1nc(NC(=O)N2CCCC2C(N)=O)sc1-c1ccnc(C(C)(C)C(F)(F)F)c1", "%", 88],
  ["Cn1nccc1Nc1nccc(-c2ccn(C(CO)c3ccc(Cl)c(F)c3)c(=O)c2)n1 (stereo not drawn) + CC(Nc1ncnc2nc[nH]c12)c1cc2cccc(Cl)c2c(=O)n1-c1ccccc1", "%", 91.9],
  ["CC(C)NCC(C(=O)N1CCN(c2ncnc3c2C(C)CC3O)CC1)c1ccc(Cl)cc1 (stereo not drawn) + CC(Nc1ncnc2nc[nH]c12)c1cc2cccc(Cl)c2c(=O)n1-c1ccccc1", "%", 90.4]
]}
